Tested on: primary human T-cells
assay.summary: Proliferation assay after 5 days (CellTiter-Glo, CD3 stimulation; PBS counter screen)
Assay type: cell-based
experimental.setup: Homo sapiens, T-cell, 120 h, primary human T-cells, CD3 stimulation, CellTiter-Glo after 5 days; EC50 of fitted sigmoidal curve; read-out: Tcell Proliferation CD3 EC50
Criterion: EC50 strictly less than 800 nM. Met: 1. Not met: 0.

N[C@H]1CS(=O)(=O)c2ccc(-c3nnc(N4CC5(CCCO5)C4)o3)cc2N(Cc2ccc(Cl)cc2)C1=O	0
N[C@H]1CS(=O)(=O)c2cc(F)c(-c3nc(C4CC4)no3)cc2N(Cc2ccc(Cl)cc2)C1=O	0
CC(C)(C)c1nnc(-c2cc3c(cc2F)S(=O)(=O)C[C@H](N)C(=O)N3Cc2ccc(Cl)cc2)s1	1
C#CCOCCOCCOCCCC(C)(C)c1nc(-c2cc3c(cc2F)S(=O)(=O)C[C@H](N)C(=O)N3Cc2ccc(Cl)cc2)no1	1
Cc1c(F)c(-c2nnc(C(C)(C)C)o2)cc2c1S(=O)(=O)C[C@H](N)C(=O)N2Cc1ccc(Cl)cc1	0
CCc1nc(-c2cc3c(cc2F)S(=O)(=O)C[C@H](N)C(=O)N3Cc2ccc(Cl)cc2)n[nH]1	0

* * *

Tested on: primary human T-cells
assay.summary: Proliferation assay after 5 days (CellTiter-Glo, CD3 stimulation; PBS counter screen)
Format: cell-based
experimental.setup: Homo sapiens, T-cell, 120 h, CD3 stimulation, 5 days; normalized to reference compound A1 as stimulator control = 100%, DMSO neutral control; read-out: Emax proliferation (% activation)
quantity.name: Emax

CN1CCC(c2nnc(-c3cc4c(cc3F)S(=O)(=O)C[C@H](N)C(=O)N4Cc3ccc(Cl)cc3)o2)C1 (stereo partly shown)	106%
CC(Nc1nnc(-c2cc3c(cc2F)S(=O)(=O)C[C@H](N)C(=O)N3Cc2ccc(Cl)cc2)o1)C(F)(F)F (stereo partly shown)	103%
N[C@H]1CS(=O)(=O)c2ccc(-c3nc(CC(F)(F)F)no3)nc2N(Cc2ccc(Cl)cc2)C1=O	161%
CCc1nc(-c2cc3c(cc2F)S(=O)(=O)C[C@H](N)C(=O)N3Cc2ccc(Cl)cc2)no1	139%
C[C@@H]1[C@H](N)C(=O)N(Cc2ccc(Cl)cc2)c2cc(-c3nnc(C(C)(C)C)o3)c(F)cc2S1(=O)=O	114%
Cc1cc(C)c(-c2nnc(-c3cc4c(cc3F)S(=O)(=O)C[C@H](N)C(=O)N4Cc3ccc(Cl)cc3)o2)cn1	114%
CC(C)(C)c1nnc(-c2cc3c(cc2F)S(=O)(=O)C[C@H](N)C(=O)N3Cc2ccc(Cl)nc2)o1	106%

* * *

Tested on: primary human T-cells
# label = y if EC50 < 400 nM else n

N[C@H]1CS(=O)(=O)c2cc(F)c(-c3nnc(N4CCOCC4)o3)cc2N(Cc2ccc(Cl)cc2)C1=O [Example 454]	y
CN1CC(c2nnc(-c3cc4c(cc3F)S(=O)(=O)C[C@H](N)C(=O)N4Cc3ccc(Cl)cc3)o2)CC(F)(F)C1 (stereo partly drawn) [Example 451]	y
COC(=O)N1CCC(C#N)(c2nnc(-c3ccc4c(c3)N(Cc3ccc(Cl)cc3)C(=O)[C@@H](N)CS4(=O)=O)o2)CC1 [Example 389]	n
CC(C)Oc1ccc(CN2C(=O)[C@@H](N)CS(=O)(=O)c3cc(F)c(-c4nnc(C(C)(C)C)o4)cc32)cn1 [Example 249]	n
N[C@H]1C[S+]([O-])c2ccc(-c3nnc(CC(F)(F)F)o3)cc2N(Cc2ccc(OC(F)(F)F)cc2)C1=O (single isomer, unassigned; epimer a) [Example 427]	n
CCN1CC(c2nnc(-c3cc4c(cc3F)S(=O)(=O)C[C@H](N)C(=O)N4Cc3ccc(Cl)cc3)o2)CC(F)(F)C1 (stereo partly drawn) [Example 150]	y
COC(=O)N1CC2CC(c3nc(-c4cc5c(cc4F)S(=O)(=O)C[C@H](N)C(=O)N5Cc4ccc(Cl)cc4)no3)(C2)C1 [Example 317]	n
N[C@H]1CS(=O)(=O)c2ccc(-c3nnc(CC(F)(F)F)o3)cc2N(Cc2ccc(OC(F)(F)F)cc2)C1=O [Example 416]	y
N[C@H]1CS(=O)(=O)c2cc(F)c(-c3nnc(CCC(F)(F)F)o3)cc2N(Cc2ccc(Cl)cc2)C1=O [Example 67]	y
CC(C)(C)n1cnc(-c2cc3c(cc2F)S(=O)(=O)C[C@H](N)C(=O)N3Cc2ccc(Cl)cc2)n1 [Example 286]	n
CC(C)(C)n1nc(-c2cc3c(cc2F)S(=O)(=O)C[C@H](N)C(=O)N3Cc2ccc(Cl)cc2)oc1=O [Example 510]	y
N[C@H]1CS(=O)(=O)c2cc(F)c(-c3nnc(N4C[C@H]5C[C@@H](C4)C5(F)F)o3)cc2N(Cc2ccc(Cl)cc2)C1=O [Example 469]	n
COC1(c2nnc(-c3ccc4c(c3)N(Cc3ccc(Cl)cc3)C(=O)[C@@H](N)CS4(=O)=O)o2)CCC(F)(F)CC1 [Example 378]	n
CC(C)(C)n1nnc(-c2cc3c(cc2F)[S+]([O-])C[C@H](N)C(=O)N3Cc2ccc(Cl)cc2)n1 (stereo partly drawn) [Example 35]	n
CC(C)(C)c1nnc(-c2cc3c(cc2F)S(=O)(=O)C[C@H](N)C(=O)N3Cc2ccc(OC(F)(F)F)cc2)o1 [Example 57]	y
N[C@H]1CS(=O)(=O)c2cc(F)c(-c3nnc(C(F)(F)C(F)(F)F)o3)cc2N(Cc2ccc(Cl)cc2)C1=O [Example 185]	n
N[C@H]1CS(=O)(=O)c2cc(F)c(-c3nnc(-c4ccccc4)o3)cc2N(Cc2ccc(Cl)cc2)C1=O [Example 97]	n
N[C@H]1CS(=O)(=O)c2cc(F)c(-c3nnc(NC4CCC(F)(F)CC4)o3)cc2N(Cc2ccc(Cl)cc2)C1=O [Example 458]	n
N[C@H]1C[S+]([O-])c2cc(F)c(-c3noc(N4CCOC5(CC5)C4)n3)cc2N(Cc2ccc(Cl)cc2)C1=O (single isomer, unassigned; epimer b) [Example 210]	n
CC1(c2nc(-c3cc4c(cc3F)S(=O)(=O)C[C@H](N)C(=O)N4Cc3ccc(Cl)cc3)no2)CCN(C(=O)N2CCCC2)CC1 [Example 305]	n
CC(C)(C)n1ccc(-c2cc3c(cc2F)S(=O)(=O)C[C@H](N)C(=O)N3Cc2ccc(Cl)cc2)n1 [Example 287]	n
N[C@H]1CS(=O)(=O)c2ccc(-c3nnc(NC4CCCC(F)(F)C4)o3)cc2N(Cc2ccc(Cl)cc2)C1=O (stereo partly drawn) [Example 401]	n
N[C@H]1CS(=O)(=O)c2cc(F)c(-c3nnc(NC4CC(F)(F)C4)o3)cc2N(Cc2ccc(Cl)cc2)C1=O [Example 462]	n
Cc1ccncc1-c1nc(-c2cc3c(cc2F)S(=O)(=O)C[C@H](N)C(=O)N3Cc2ccc(Cl)cc2)no1 [Example 310]	n
CC(C)(C#N)c1nnc(-c2ccc3c(c2)N(Cc2ccc(Cl)cc2)C(=O)[C@@H](N)CS3(=O)=O)o1 [Example 364]	n
CC(C)(C)c1nnc(-c2cc3c(cc2F)S(=O)(=O)C[C@H](NC(=O)CCCN)C(=O)N3Cc2ccc(Cl)cc2)o1 [Example 267]	n
N[C@H]1CS(=O)(=O)c2cc(F)c(-c3nnc(C4CCOCC4)o3)cc2N(Cc2ccc(Cl)cc2)C1=O [Example 82]	n

* * *

System: primary human T-cells
assay.summary: Proliferation assay after 5 days (CellTiter-Glo, CD3 stimulation; PBS counter screen)
Format: cell-based
experimental.setup: Homo sapiens, T-cell, 120 h, primary human T-cells, CD3 stimulation, CellTiter-Glo after 5 days; EC50 of fitted sigmoidal curve; read-out: Tcell Proliferation CD3 EC50
Method: Compounds are then added (see next section) to medium only plates. Cells are assessed for proliferation 5 days later by measuring […] using CellTiterGlo (Promega). After 5 days, for detection of ATP which is directly proportional to the number of cells present per well, the CellTiter-Glo® 2.0 Reagent is used. […] Luminescence is measured with PHERAstar FSX (interval time 0.5 sec, gain 3000, focal height 15 mm) and exported as CSV file for analysis in Genedata screener. […]
quantity.name: log10 of EC50 (log10 of the value in nM)

N[C@H]1CS(=O)(=O)c2cc(F)c(-c3nnc(NC4(CCO)CCCCC4)o3)cc2N(Cc2ccc(Cl)cc2)C1=O	3.19
CC(C)(F)c1nc(-c2cc3c(cc2F)S(=O)(=O)C[C@H](N)C(=O)N3Cc2ccc(F)cc2)no1	3.27
CC(C)(CC(F)(F)F)Nc1nnc(-c2cc3c(cc2F)S(=O)(=O)C[C@H](N)C(=O)N3Cc2ccc(Cl)cc2)o1	2.67
CC(C)(C)c1nnc(-c2cc3c(cc2F)S(=O)(=O)C[C@H](N)C(=O)N3Cc2ccc(C(C)(C)C#N)cc2)o1	2.14
Cc1cc(C)c(-c2nc(-c3cc4c(cc3F)S(=O)(=O)C[C@H](N)C(=O)N4Cc3ccc(Cl)cc3)no2)cn1	2.57
COC(=O)N1CC2(c3nnc(-c4cc5c(cc4F)S(=O)(=O)C[C@H](N)C(=O)N5Cc4ccc(Cl)cc4)o3)CC1CO2 (stereo partly shown)	2.11
CC(C)(CN1CCOCC1)c1nnc(-c2cc3c(cc2F)S(=O)(=O)C[C@H](N)C(=O)N3Cc2ccc(Cl)cc2)o1	2.54
